Tested on: NCI-H522 lung
Assay remarks: NCI-60 one-dose screen, 48 h (100 = growth as untreated, 0 = no growth, -100 = all killed)
Test parameters: 10 µM unless noted
About 83,000 compounds went through this panel and 20% of them were active in at least one assay; those are over-represented in the sample as a whole. Active and inactive are the calls of the source. The calls were made as follows: active = growth percent below 10; inactive = the rest.
Assay metric: growth

[
  {
    "Compound": "Cc1c(Cl)cc(-n2c(=O)c3ccccc3c3ccccc3c2=O)cc1Cl",
    "growth": "98.7% (inactive)"
  },
  {
    "Compound": "COc1cccc(Nc2nccc(Nc3ccc4[nH]ncc4c3)n2)c1",
    "growth": "-68.4% (active)"
  },
  {
    "Compound": "COc1ccc(C(=O)/C=C/c2c(C(F)(F)F)nc3sccn23)cc1OC",
    "growth": "93.1% (inactive)"
  },
  {
    "Compound": "COc1cc(C2CC(=O)Nc3c2c(C)nn3-c2nc3ccccc3[nH]2)c(OC)c2c1OCO2 (stereo not given)",
    "growth": "71.2% (inactive)"
  }
]

Moving on to the next compound.
Given Cc1cc(C)c(-c2c(C)cc(C)cc2CBr)c(CBr)c1 , respond with its growth.
66.4% (inactive)
